# assayTarget: PARG (Homo sapiens, UniProt Q86W56)
# Sequence (Q86W56 whole entry): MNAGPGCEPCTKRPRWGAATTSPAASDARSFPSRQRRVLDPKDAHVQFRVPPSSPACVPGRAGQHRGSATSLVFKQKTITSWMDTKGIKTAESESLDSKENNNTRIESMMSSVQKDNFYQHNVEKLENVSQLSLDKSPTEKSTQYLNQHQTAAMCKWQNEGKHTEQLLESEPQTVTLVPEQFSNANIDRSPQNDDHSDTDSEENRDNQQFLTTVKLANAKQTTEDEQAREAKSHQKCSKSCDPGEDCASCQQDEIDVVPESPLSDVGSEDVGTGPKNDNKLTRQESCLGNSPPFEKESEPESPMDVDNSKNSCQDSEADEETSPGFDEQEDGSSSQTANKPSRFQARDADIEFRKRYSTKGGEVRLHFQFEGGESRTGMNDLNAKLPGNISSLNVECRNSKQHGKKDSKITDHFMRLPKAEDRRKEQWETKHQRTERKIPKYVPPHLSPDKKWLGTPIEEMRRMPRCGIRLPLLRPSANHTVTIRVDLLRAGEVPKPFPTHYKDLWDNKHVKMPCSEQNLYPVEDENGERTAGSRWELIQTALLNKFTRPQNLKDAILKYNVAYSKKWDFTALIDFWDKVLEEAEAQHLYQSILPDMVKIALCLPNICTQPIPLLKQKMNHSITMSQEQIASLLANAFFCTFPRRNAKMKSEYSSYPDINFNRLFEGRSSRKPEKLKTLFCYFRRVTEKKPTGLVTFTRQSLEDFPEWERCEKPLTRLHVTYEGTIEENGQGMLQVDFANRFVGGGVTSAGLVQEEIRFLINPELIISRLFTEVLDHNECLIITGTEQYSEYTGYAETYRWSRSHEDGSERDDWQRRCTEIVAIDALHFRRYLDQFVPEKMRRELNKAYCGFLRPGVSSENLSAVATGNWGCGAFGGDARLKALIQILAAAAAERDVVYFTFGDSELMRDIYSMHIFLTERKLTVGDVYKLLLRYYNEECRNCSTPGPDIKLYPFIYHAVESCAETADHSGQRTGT
# experimentalProtocol: Biochemical assay (PARG, TFMU-ADPr substrate)
# conditionDescription: PARG, TFMU-ADPr substrate
readoutLabel: IC50 (nM)

CN1CCC1(C)C(=O)N1CCN(c2cc(S(=O)(=O)NC3(C)CC3)cn3c(-c4nnc(C(F)(F)F)s4)ncc23)CC1 (stereo not shown) = 6.55
CN(C)CCN(C)C(=O)N1CCN(c2cc(S(=O)(=O)NC3(C)COC3)cn3c(-c4nnc(C(F)F)s4)ncc23)CC1 = 3.37
CC1(O)CCN(c2cc(S(=O)(=O)NC3(CF)COC3)cn3c(-c4nnc(C(F)F)s4)ncc23)CC1 = 41.7

a = N#CC1(NS(=O)(=O)c2cc(N3CCN(C(=O)[C@@H]4CCCO4)CC3)c3cnc(-c4nnc(C(F)(F)F)s4)n3c2)CC1
b = CC(C)C(=O)N1CCN(c2cc(S(=O)(=O)NC3(C)CC3)cn3c(-c4nnc(C(F)F)s4)ncc23)CC1
c = C[C@H]1CN(c2cc(S(=O)(=O)NC3(C)COC3)cn3c(-c4nnc(C(F)F)s4)ncc23)C[C@H](C)N1C
d = N#CC1(NS(=O)(=O)c2cc(C3CCN(C(=O)C4(O)CC4)CC3)c3cnc(-c4nnc(C(F)(F)F)s4)n3c2)CC1
**Q:** Endpoint returns the given molecules ordered by ascending IC50. Put the labels in the requested order and write them down.
**A:** b, d, c, a

###

# assayTarget: PARG (Homo sapiens)
# experimentalProtocol: Biochemical assay (PARG, TFMU-ADPr substrate)
# conditionDescription: PARG, TFMU-ADPr substrate
readoutLabel: IC50 (nM)

Sample records with IC50:
Cn1nccc1C1C=C(c2cc(S(=O)(=O)NC3(C#N)CC3)cn3c(-c4nnc(C(F)F)s4)nnc23)CC1 (centres unmarked) [Example 367] = 32.8
[2H]c1nc(-c2nnc(C(F)F)s2)n2cc(S(=O)(=O)NC3(C)COC3)cc(N3C[C@H](C)N[C@@H](C)C3)c12 [Example 160] = 0.23
CN(C)C1(C(=O)N2CCN(c3cc(S(=O)(=O)NC4(C#N)CC4)cn4c(-c5nnc(C(F)(F)F)s5)ncc34)CC2)CC1 [Example 266] = 132
CC(C)C(=O)N1CCN(c2cc(S(=O)(=O)NC3(C)CC3)cn3c(-c4nnc(C(F)(F)F)s4)nnc23)C[C@H]1C [Example 119] = 41.7
C[C@@H]1CN(c2cc(S(=O)(=O)NC3(C#N)CC3)cn3c(-c4nnc(C(F)F)s4)ncc23)CCN1C(=O)C1(F)CC1 [Example 77] = 24
[2H]C([2H])([2H])OCC1CN(c2cc(S(=O)(=O)NC3(C)COC3)cn3c(-c4nnc(C(F)F)s4)ncc23)CCN1 (centres unmarked) [Example 392] = 11

1 = CC(C)C(=O)N1CC=C(c2cc(S(=O)(=O)NC3(C#N)CC3)cn3c(-c4nnc(C(F)(F)F)s4)ncc23)CC1 [Example 368]
2 = CC(C)C(=O)N1CCN(c2cc(S(=O)(=O)NC3(C#N)CC3)cn3c(-c4nnc(C(F)F)s4)ncc23)C[C@H]1CO [Example 222]
**Q:** Which gives the smaller IC50 number: 1 or 2 ? Respond with the label that goes with your answer.
**A:** 2

a = C[C@@H]1CN(c2cc(S(=O)(=O)NC3(C#N)CC3)cn3c(-c4nnc(C(F)F)s4)ncc23)CCN1C(=O)C1CC1 [Example 75]
b = CC1(C(=O)N2CCN(c3cc(S(=O)(=O)NC4(C#N)CC4)cn4c(-c5nnc(C(F)F)s5)ncc34)CC23CC3)CC1 [Example 91]
**Q:** Name the one with the greater IC50 value, either a or b as given. Respond with the label that goes with your answer.
**A:** b
(b: 31.6 nM, a: 13.2 nM)

###

# assayTarget: PARG (Homo sapiens)
# experimentalProtocol: Biochemical assay (PARG, TFMU-ADPr substrate)
# conditionDescription: PARG, TFMU-ADPr substrate
readoutLabel: IC50 (nM)

I = CC(C)C(=O)N1CCN(c2cc(S(=O)(=O)NC3(C)COC3)cn3c(-c4nnc(C(F)F)s4)nc(Cl)c23)C[C@H]1C [Example 124]
II = CC(C)C(=O)N1CCN(c2cc(S(=O)(=O)NC3(C)CC(F)(F)C3)cn3c(-c4nnc(C(F)F)s4)ncc23)CC1 [Example 61]
III = C[C@@H]1CN(c2cc(S(=O)(=O)NC3(C#N)CC3)cn3c(-c4nnc(C(F)F)s4)nc(Cl)c23)CCN1C(=O)C1(C)CC1 [Example 123]
IV = [2H]C1([2H])CCC1([2H])NS(=O)(=O)c1cc(N2CCN(C(=O)C(C)C)CC2)c2cnc(-c3nnc(C(F)F)s3)n2c1 (stereo not shown) [Example 57]
**Q:** Sequence the entries by IC50, beginning with the highest number. Put the labels in the requested order and write them down.
**A:** II, IV, III, I
(II: 121 nM, IV: 21.2 nM, III: 9.12 nM, I: 2.54 nM)

A = COCC1CN(c2cc(S(=O)(=O)NC3(CF)COC3)cn3c(-c4nnc(C(F)F)s4)nc(Cl)c23)CCN1 (stereo not shown) [Example 136]
B = CN(C)CCC(=O)N1CCN(c2cc(S(=O)(=O)NC3(C#N)CC3)cn3c(-c4nnc(C(F)(F)F)s4)ncc23)CC1 [Example 249]
C = C[C@H]1CN(c2cc(S(=O)(=O)NC3(C)COC3)cn3c(-c4nnc(C(F)F)s4)nc(Cl)c23)C[C@H](C)N1 [Example 126]
D = CN(C)C(=O)N1CCN(c2cc(S(=O)(=O)NC3(C)COC3)cn3c(-c4nnc(C(F)F)s4)nc(Cl)c23)CC1 [Example 128]
**Q:** Arrange these compounds by their IC50, starting with the largest number. Put the labels in the requested order and write them down.
**A:** B, A, C, D
(B: 115 nM, A: 7.94 nM, C: 5.34 nM, D: 0.99 nM)

a = N#CC1(NS(=O)(=O)c2cc(N3CCC(OCC(F)(F)F)CC3)c3cnc(-c4nnc(C(F)F)s4)n3c2)CC1 [Example 47]
b = N#CC1(NS(=O)(=O)c2cc(N3CCN(C(=O)C4(OCC(=O)O)CC4)CC3)c3cnc(-c4nnc(C(F)F)s4)n3c2)CC1 [Example 381]
c = CN(C)C(=O)N1CCN(c2cc(S(=O)(=O)NC3(C)CC3)cn3c(-c4nnc(C(F)F)s4)ncc23)CC1 [Example 308]
**Q:** Endpoint returns the given compounds ordered by ascending IC50. Put the labels in the requested order and write them down.
**A:** c, a, b
(c: 0.73 nM, a: 5.91 nM, b: 27.1 nM)

I = CN(C)C(=O)N1CCN(c2cc(S(=O)(=O)NC3(C#N)CC3)cn3c(-c4nnc(C(F)(F)F)s4)ncc23)CC1 [Example 227]
II = CO[C@H]1C[C@H](C(=O)N2CCN(c3cc(S(=O)(=O)NC4(C#N)CC4)cn4c(-c5nnc(C(F)(F)F)s5)ncc34)CC2)C1 [Example 245]
**Q:** Name the one with the greater IC50 value, either I or II as given. Respond with the label that goes with your answer.
**A:** II
(II: 28.8 nM, I: 5.01 nM)

I = CC(C)C(=O)N1CCN(c2cc(S(=O)(=O)NC3(C#N)CC3)cn3c(-c4nnc(C(F)(F)F)s4)ncc23)C(C)C1 (stereo not shown) [Example 344]
II = CC1(NS(=O)(=O)c2cc(N3CCN(C(=O)[C@H]4CCN4CCCF)CC3)c3cnc(-c4nnc(C(F)(F)F)s4)n3c2)CC1 [Example 319]
**Q:** Name the one with the greater IC50 value, either I or II as given. Respond with the label that goes with your answer.
**A:** I
(I: 38.3 nM, II: 5.62 nM)

1 = COC1CN(c2cc(S(=O)(=O)NC3(C)CC3)cn3c(-c4nnc(C(F)F)s4)ncc23)CCC1O (stereo not shown) [Example 348]
2 = CC(=O)N1[C@@H](C)CN(c2cc(S(=O)(=O)NC3(C)COC3)cn3c(-c4nnc(C(F)F)s4)ncc23)C[C@@H]1C [Example 401]
**Q:** Name the one with the greater IC50 value, either 1 or 2 as given. Respond with the label that goes with your answer.
**A:** 2
(2: 158 nM, 1: 1.99 nM)

a = [2H]c1nc(-c2nnc(C(F)F)s2)n2cc(S(=O)(=O)NC3(C)COC3)c(F)c(N3CCN(C(=O)C(C)C)CC3)c12 [Example 155]
b = N#CC1(NS(=O)(=O)c2cc(N3CCC4=C(COC4=O)C3)c3cnc(-c4nnc(C(F)(F)F)s4)n3c2)CC1 [Example 220]
**Q:** Which gives the smaller IC50 number: a or b ? Respond with the label that goes with your answer.
**A:** a
(a: 1.68 nM, b: 57.5 nM)

a = COC1(C(=O)N2CCN(c3cc(S(=O)(=O)NC4(C)CC4)cn4c(-c5nnc(C(F)(F)F)s5)ncc34)CC2)CC1 [Example 193]
b = CC(C)C(=O)N1CCN(c2cc(S(=O)(=O)NC3(C)COC3)cn3c(-c4nnc(C(F)F)s4)nnc23)CC1 [Example 103]
**Q:** Name the one with the greater IC50 value, either a or b as given. Respond with the label that goes with your answer.
**A:** b
(b: 1.5 nM, a: 0.36 nM)
